TARGET SYSTEM: EPHB1 (UniProt P54762)
Sequence (P54762 whole entry, looked up): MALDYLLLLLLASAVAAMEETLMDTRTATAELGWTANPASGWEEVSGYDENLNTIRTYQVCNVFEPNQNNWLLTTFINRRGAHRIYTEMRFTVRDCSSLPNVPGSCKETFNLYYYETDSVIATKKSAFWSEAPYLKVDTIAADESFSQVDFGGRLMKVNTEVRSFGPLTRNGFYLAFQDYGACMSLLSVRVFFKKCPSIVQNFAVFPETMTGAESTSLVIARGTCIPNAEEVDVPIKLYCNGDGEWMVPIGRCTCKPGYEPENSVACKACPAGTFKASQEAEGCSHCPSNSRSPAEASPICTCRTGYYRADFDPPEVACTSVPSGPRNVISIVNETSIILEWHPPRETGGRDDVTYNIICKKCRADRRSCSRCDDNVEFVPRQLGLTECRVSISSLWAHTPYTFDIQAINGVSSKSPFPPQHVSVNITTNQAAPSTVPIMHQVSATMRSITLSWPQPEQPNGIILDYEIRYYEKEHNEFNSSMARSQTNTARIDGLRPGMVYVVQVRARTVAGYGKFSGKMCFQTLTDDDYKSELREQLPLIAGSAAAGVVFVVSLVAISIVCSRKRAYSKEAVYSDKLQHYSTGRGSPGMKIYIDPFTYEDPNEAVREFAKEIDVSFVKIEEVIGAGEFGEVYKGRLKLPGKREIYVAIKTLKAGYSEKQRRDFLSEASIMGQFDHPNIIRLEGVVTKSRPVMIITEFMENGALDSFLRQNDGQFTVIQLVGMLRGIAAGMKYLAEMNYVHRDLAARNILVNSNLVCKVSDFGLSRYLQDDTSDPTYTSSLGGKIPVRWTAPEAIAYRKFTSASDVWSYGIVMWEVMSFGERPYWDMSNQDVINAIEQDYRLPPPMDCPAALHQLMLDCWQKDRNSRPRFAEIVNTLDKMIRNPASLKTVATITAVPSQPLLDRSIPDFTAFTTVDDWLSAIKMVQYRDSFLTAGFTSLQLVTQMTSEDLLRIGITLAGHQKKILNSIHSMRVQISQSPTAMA
ASSAY REMARKS: phosphorylation enrichment, bacterial display (enrichment ratio); higher = better substrate or ligand; peptides without Tyr show the background;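 further: 11-residue human phosphosite peptides and single-mutation variants displayed on the E. coli surface, counted by deep sequencing, each peptide's frequency after selection divided by its frequency in the unselected input library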;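 further: frequency after pTyr selection over input frequency; kinase dosed for 20-30% of maximal phosphorylation in three min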
Listed here: items and their measured phosphorylation enrichment.
VALUE KIND: phosphorylation enrichment

INSERT INTO measurements (biopolymer_sequence, target_system, observed) VALUES
  ('KGFRGYSFDDI [TMEM230_Y110_YF]', 'EPHB1 (UniProt P54762)', 0.495),
  ('SENYTYIWWLN [PSG4_Y271_K267E]', 'EPHB1 (UniProt P54762)', 1.53),
  ('YFVVEYRDQKP [MUC17_Y4332]', 'EPHB1 (UniProt P54762)', 1.23),
  ('IYETDYYQKGG [INSR_Y1189_R1191Q]', 'EPHB1 (UniProt P54762)', 1.2),
  ('SFGENYDNSKS [MAN1B1_Y60]', 'EPHB1 (UniProt P54762)', 0.434),
  ('HQEPVCSVAFS [TBL1X_Y509_Y509C]', 'EPHB1 (UniProt P54762)', 0.804),
  ('HAKKNYGNSSV [HDX_Y197]', 'EPHB1 (UniProt P54762)', 0.316),
  ('DYTEAYNPKIK [CLK1_Y305]', 'EPHB1 (UniProt P54762)', 0.422),
  ('SVVVPYEPREV [TP53_Y220_P223R]', 'EPHB1 (UniProt P54762)', 0.53),
  ('HEKKAYAFCGT [RPS6KA3_Y226_S227A]', 'EPHB1 (UniProt P54762)', 0.561),
  ('RTCSSYTIEKI [PARP15_Y520_A521T]', 'EPHB1 (UniProt P54762)', 0.608),
  ('KKLHKYNTQFQ [PIK3R1_Y452_E451K]', 'EPHB1 (UniProt P54762)', 0.511),
  ('KSRQIYDAFIM [GRK3_Y109_R104K_YF]', 'EPHB1 (UniProt P54762)', 4.7),
  ('NTGLDYIKFTW [HRH1_Y386]', 'EPHB1 (UniProt P54762)', 0.647),
  ('NSRFTCKLEVK [USH2A_Y3747_Y3747C_YF]', 'EPHB1 (UniProt P54762)', 0.629),
  ('FTAVGYHKHIT [NOMO1_Y1137]', 'EPHB1 (UniProt P54762)', 0.382),
  ('PLDAEYFTLQI [TP53_Y327_G325A]', 'EPHB1 (UniProt P54762)', 0.876),
  ('AKNKDYMSIIR [GNE_Y197]', 'EPHB1 (UniProt P54762)', 0.851),
  ('HKDNNYVSMWF [PAPOLG_Y432]', 'EPHB1 (UniProt P54762)', 6.89),
  ('GDYLSYREFHS [ERBIN_Y1107]', 'EPHB1 (UniProt P54762)', 16.8),
  ('TFEPNYGTVKR [RAPGEF6_Y1447_Q1452R_YF]', 'EPHB1 (UniProt P54762)', 0.55),
  ('KVALPYKPFFF [POLE_Y100_YF]', 'EPHB1 (UniProt P54762)', 0.42),
  ('RAIGFYSATSK [FAM120A_Y328_YF]', 'EPHB1 (UniProt P54762)', 0.46),
  ('EYHRLYEEYTR [PIK3R1_Y467_D464H]', 'EPHB1 (UniProt P54762)', 3.87),
  ('TLPAFYMGNFS [GLB1_Y552]', 'EPHB1 (UniProt P54762)', 0.645),
  ('QHVPDYRQNVY [PCDHGA1_Y890]', 'EPHB1 (UniProt P54762)', 0.544),
  ('GRQGIYTENKR [GPR143_Y231_E235K]', 'EPHB1 (UniProt P54762)', 0.349),
  ('KQQEIYQELTQ [CD209_Y239]', 'EPHB1 (UniProt P54762)', 5.8),
  ('APQYTYAQGGQ [FLNA_Y1763]', 'EPHB1 (UniProt P54762)', 0.373),
  ('QLCVSYPGGYT [PROS1_Y259_N258S]', 'EPHB1 (UniProt P54762)', 0.588),
  ('KEDSVYGSQSV [NFKB2_Y868_A867V]', 'EPHB1 (UniProt P54762)', 0.449),
  ('LDYNEYFRYLN [HPRT1_Y198_D201Y]', 'EPHB1 (UniProt P54762)', 0.858),
  ('CEHRGFLYLAI [TEK_Y897_Y897F]', 'EPHB1 (UniProt P54762)', 0.464),
  ('PECEWYKNGVK [TTN_Y2112]', 'EPHB1 (UniProt P54762)', 0.759),
  ('KIIRRYVSSEG [ANK2_Y3907]', 'EPHB1 (UniProt P54762)', 0.321),
  ('CVGGFYGGCNE [CTSC_Y352_Y347C]', 'EPHB1 (UniProt P54762)', 0.548),
  ('RSFPSYFTSHV [NEFL_Y442_YF]', 'EPHB1 (UniProt P54762)', 0.672),
  ('DEEDFYQGSME [ASCC1_Y36]', 'EPHB1 (UniProt P54762)', 0.761),
  ('LARDIYKNDYY [ROS1_Y2110]', 'EPHB1 (UniProt P54762)', 0.953),
  ('ADKSAYLMGLN [MYH7_Y386]', 'EPHB1 (UniProt P54762)', 0.405),
  ('WNRDKYAATTT [TRIM39_Y439_G436R]', 'EPHB1 (UniProt P54762)', 0.448),
  ('CDIARYIVSQL [MAST2_Y461_P459A]', 'EPHB1 (UniProt P54762)', 0.594),
  ('DSFATYFRWVL [H2BW1_Y84_R87W]', 'EPHB1 (UniProt P54762)', 1.85),
  ('DEDFLCREELA [POR_Y575_Y575C_YF]', 'EPHB1 (UniProt P54762)', 0.701),
  ('ALVDTYCRHNY [HLA-DRB1_Y107_A103L]', 'EPHB1 (UniProt P54762)', 0.439),
  ('PQGVGYPQQQQ [EP300_Y2219_P2221Q]', 'EPHB1 (UniProt P54762)', 0.591),
  ('CRERPYGGGGG [FUS_Y526_R521C]', 'EPHB1 (UniProt P54762)', 0.552),
  ('LNLKEYNLVGG [GNAQ_Y356]', 'EPHB1 (UniProt P54762)', 0.307),
  ('FLRTGYSIPFG [TGM1_Y370_V372I_YF]', 'EPHB1 (UniProt P54762)', 0.538),
  ('VNYGAYINDFN [GLB1_Y488_K493N]', 'EPHB1 (UniProt P54762)', 0.737),
  ('FRARAYSFRGP [CHGA_Y381_G382S]', 'EPHB1 (UniProt P54762)', 0.48),
  ('VHYLVYHHHHH [CACNA1H_Y519_H516Y]', 'EPHB1 (UniProt P54762)', 0.687),
  ('PLDGEYFILQI [TP53_Y327_T329I]', 'EPHB1 (UniProt P54762)', 2.02),
  ('KFEDVYVGICL [B3GALNT1_Y269]', 'EPHB1 (UniProt P54762)', 0.857),
  ('ETLLFYGFRRS [POR_Y564_C566Y_YF]', 'EPHB1 (UniProt P54762)', 0.504),
  ('FFRDGYMPRQF [GSS_Y270_YF]', 'EPHB1 (UniProt P54762)', 0.415),
  ('SDVCMYRKNIY [SYNE2_Y570]', 'EPHB1 (UniProt P54762)', 0.618);

---

TARGET SYSTEM: FGFR3 (UniProt P22607)
Sequence (P22607 whole entry, looked up): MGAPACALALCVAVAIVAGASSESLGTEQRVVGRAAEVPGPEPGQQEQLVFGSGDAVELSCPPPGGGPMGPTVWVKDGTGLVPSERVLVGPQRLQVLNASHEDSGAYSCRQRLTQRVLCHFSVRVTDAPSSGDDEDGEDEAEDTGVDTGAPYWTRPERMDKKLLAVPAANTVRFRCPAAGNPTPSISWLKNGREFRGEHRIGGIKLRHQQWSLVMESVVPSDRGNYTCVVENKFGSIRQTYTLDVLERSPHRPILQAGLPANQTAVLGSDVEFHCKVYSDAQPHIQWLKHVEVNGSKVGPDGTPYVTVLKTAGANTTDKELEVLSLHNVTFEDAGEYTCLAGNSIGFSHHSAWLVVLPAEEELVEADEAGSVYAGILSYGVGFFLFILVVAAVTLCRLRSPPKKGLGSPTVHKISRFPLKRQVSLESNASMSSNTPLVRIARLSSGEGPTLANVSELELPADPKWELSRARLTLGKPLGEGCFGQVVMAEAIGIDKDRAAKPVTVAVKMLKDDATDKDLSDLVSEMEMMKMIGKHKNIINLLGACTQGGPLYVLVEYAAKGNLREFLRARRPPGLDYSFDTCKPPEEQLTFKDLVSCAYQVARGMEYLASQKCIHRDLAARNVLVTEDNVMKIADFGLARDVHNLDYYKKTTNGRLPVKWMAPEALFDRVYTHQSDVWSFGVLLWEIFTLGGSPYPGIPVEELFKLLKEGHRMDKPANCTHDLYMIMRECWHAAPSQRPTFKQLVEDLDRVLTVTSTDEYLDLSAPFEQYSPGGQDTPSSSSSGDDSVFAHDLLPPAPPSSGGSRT
ASSAY REMARKS: phosphorylation enrichment, bacterial display (enrichment ratio); higher = better substrate or ligand; peptides without Tyr show the background
Rule: phosphorylation enrichment under 0.5 gives No, otherwise Yes.

INSERT INTO measurements (biopolymer_sequence, target_system, class_label) VALUES
  ('SSNLYYRWLTA [CNGA3_Y169]', 'FGFR3 (UniProt P22607)', 'Yes'),
  ('SQQTYCRVSNM [ABCD1_Y181_Y181C]', 'FGFR3 (UniProt P22607)', 'Yes'),
  ('LEPHIYAVADV [MYO9A_Y216]', 'FGFR3 (UniProt P22607)', 'Yes'),
  ('SHNELYYEEAE [VANGL1_Y344]', 'FGFR3 (UniProt P22607)', 'Yes'),
  ('EKKDVYKTGEQ [CFH_Y1008_A1010T]', 'FGFR3 (UniProt P22607)', 'Yes'),
  ('ARVDTYCRHNF [HLA-DRB1_Y107_A103R_YF]', 'FGFR3 (UniProt P22607)', 'Yes'),
  ('TQIGQYGNGLK [MORC2_Y100]', 'FGFR3 (UniProt P22607)', 'No'),
  ('SENYTYIWWLN [PSG4_Y271_K267E]', 'FGFR3 (UniProt P22607)', 'Yes'),
  ('RLCQDYDIIGP [ANK1_Y1073_T1075I]', 'FGFR3 (UniProt P22607)', 'Yes'),
  ('ALAHKYHGGGG [HBB_Y146]', 'FGFR3 (UniProt P22607)', 'No'),
  ('DNAFQYMLTDR [MYH7_Y164_YF]', 'FGFR3 (UniProt P22607)', 'Yes'),
  ('CTTIHYNSMCN [TP53_Y234_Y236S]', 'FGFR3 (UniProt P22607)', 'Yes'),
  ('TRVMEYISCLD [CLTCL1_Y1043_R1046C]', 'FGFR3 (UniProt P22607)', 'Yes'),
  ('RISGVYKLPPD [ANGPTL7_Y145]', 'FGFR3 (UniProt P22607)', 'Yes'),
  ('GIVEDYRPPVY [ACVRL1_Y421_F425V]', 'FGFR3 (UniProt P22607)', 'Yes'),
  ('TNYCLYLRSLE [MTM1_Y71_R69C]', 'FGFR3 (UniProt P22607)', 'Yes'),
  ('CTTIHYNCMCN [TP53_Y234_Y236C]', 'FGFR3 (UniProt P22607)', 'Yes'),
  ('IDSTPYGQWFE [RPS8_Y109_R110G_YF]', 'FGFR3 (UniProt P22607)', 'Yes'),
  ('LSGFCYRLSDQ [PDCD6_Y124_G123C]', 'FGFR3 (UniProt P22607)', 'Yes'),
  ('KDYETYQSFQN [CTNND2_Y1157_P1159S]', 'FGFR3 (UniProt P22607)', 'Yes'),
  ('EPAVLYNLKER [MYH7_Y103_D107E]', 'FGFR3 (UniProt P22607)', 'Yes'),
  ('LIYTNYEAGKD [GSTP1_Y112]', 'FGFR3 (UniProt P22607)', 'Yes'),
  ('MAQDIYRASFF [ALK_Y1278_R1275Q_YF]', 'FGFR3 (UniProt P22607)', 'No'),
  ('SIIKDYFHRGT [GATM_Y203_A208T]', 'FGFR3 (UniProt P22607)', 'Yes'),
  ('CCKNRYDKDKP [THAP1_Y14_G9C]', 'FGFR3 (UniProt P22607)', 'No');
